Exercise: state measured IC50 for each of the molecules provided.
SUBJECT_OF_TEST: PAR4 (Homo sapiens, UniProt Q96RI0)
TEST: Human platelet activity assay, flow cytometry, γ-thrombin activation
Assay type: cell-based
Set-up: endogenous in cells; host or cells: washed human platelets from healthy volunteers
CONDITION_INFO: human platelets, 100 nM γ-thrombin, P-selectin (CD62p); read-out: Human Platelets P-Sel IC50
Write the number in nM without appending the unit.

**Q:** # get_value(readout='IC50', item= Cc1nc(NC(=O)c2cc(-c3ccccc3)n(-c3ccccc3)n2)n[nH]1 )
**A:** 2730

**Q:** Same question, CCc1cc(C(=O)Nc2n[nH]c(-c3c(F)cccc3F)n2)nn1C this time
**A:** 580

**Q:** Same question, Cn1nc(C(=O)Nc2n[nH]c(-c3ccccc3F)n2)cc1C1CC1 this time
**A:** 630

###

Exercise: state measured CLint scaled at 1 µM for each of the compounds provided.
TEST: Microsomal stability, human liver microsomes
Type: in vitro ADME
CONDITION_INFO: pH 7.4; human liver microsomes, in vitro, reaction started with NADPH
Write the number in mL/min/kg without appending the unit.

**Q:** # get_value(readout='CLint scaled at 1 µM', item= O=C(Nc1n[nH]c(-c2cccc(OC(F)F)c2)n1)c1nn(-c2ccccc2)c2c1CCCC2 )
**A:** 416

**Q:** Same question, O=C(Nc1n[nH]c(-c2ccc(F)cc2F)n1)c1nn(-c2ccccc2)c2c1CCCC2 this time
**A:** 459

**Q:** Same question, Cc1cc(C(=O)Nc2n[nH]c(OC(F)F)n2)nn1-c1ccccc1 this time
**A:** 407

**Q:** Same question, COc1cccc(-c2nc(NC(=O)c3nn(-c4ccccc4)c4c3CCCC4)n[nH]2)c1 this time
**A:** 285

**Q:** Same question, Cn1nc(C(=O)Nc2n[nH]c(-c3c(F)cccc3F)n2)cc1C1CC1 this time
**A:** 478

**Q:** Same question, O=C(Nc1nc[nH]n1)c1nn(-c2ccccc2)c2c1CCC2 this time
**A:** 49.6

###

SUBJECT_OF_TEST: PAR4 (Homo sapiens, UniProt Q96RI0)
Sequence (Q96RI0 18-385): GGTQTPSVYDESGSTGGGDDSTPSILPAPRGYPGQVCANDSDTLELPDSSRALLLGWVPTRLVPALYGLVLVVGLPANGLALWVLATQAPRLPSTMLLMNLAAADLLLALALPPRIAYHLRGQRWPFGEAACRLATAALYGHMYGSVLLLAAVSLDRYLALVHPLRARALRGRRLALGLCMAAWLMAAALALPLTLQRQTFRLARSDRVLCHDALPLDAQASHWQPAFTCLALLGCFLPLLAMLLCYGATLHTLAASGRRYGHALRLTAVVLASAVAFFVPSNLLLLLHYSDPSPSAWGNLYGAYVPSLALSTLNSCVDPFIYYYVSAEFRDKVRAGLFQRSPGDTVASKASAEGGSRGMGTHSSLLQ
TEST: Human platelet activity assay, flow cytometry, γ-thrombin activation
Format: cell-based
Set-up: endogenous in cells; host or cells: washed human platelets from healthy volunteers
CONDITION_INFO: human platelets, 100 nM γ-thrombin, P-selectin (CD62p); read-out: Human Platelets P-Sel IC50
MEASURED_PARAMETER: log10(IC50) (log10 of the value in nM)
For clarity, the numbers are log10 values of IC50 expressed in nM.

**Q:** Entry Cc1cc(C(=O)Nc2n[nH]c(OC(F)F)n2)nn1-c1ccccc1 , system PAR4 (Homo sapiens, UniProt Q96RI0): what log10(IC50) was measured?
**A:** 2.80

**Q:** Same question, O=C(Nc1n[nH]c(-c2ccc(F)cc2F)n1)c1nn(-c2ccccc2)c2c1CCCC2 this time
**A:** 2.13

**Q:** Same question, O=C(Nc1nc[nH]n1)c1nn(-c2ccccc2)c2c1CCC2 this time
**A:** 2.78

**Q:** Same question, Cc1n[nH]c(NC(=O)c2nn(-c3cccc(F)c3)c3c2CCC3)n1 this time
**A:** 3.14

**Q:** Same question, Cn1nc(C(=O)Nc2n[nH]c(-c3ccc(C#N)cc3)n2)cc1C1CC1 this time
**A:** 2.76

**Q:** Same question, Cc1nc(NC(=O)c2cc(C(=O)OC(C)(C)C)n(-c3ccccc3)n2)n[nH]1 this time
**A:** 3.06

**Q:** Same question, O=C(Nc1n[nH]c(-c2cccc(C(F)(F)F)c2)n1)c1nn(-c2ccccc2)c2c1CCCC2 this time
**A:** 2.32

**Q:** Same question, O=C(Nc1n[nH]c(C2CC2)n1)c1nn(-c2cccc(F)c2)c2c1CCCC2 this time
**A:** 2.45

**Q:** Same question, CC(C)c1cc(C(=O)Nc2n[nH]c(-c3c(F)cccc3F)n2)nn1C this time
**A:** 2.93

**Q:** Same question, COc1cccc(-c2nc(NC(=O)c3nn(-c4ccccc4)c4c3CCCC4)n[nH]2)c1 this time
**A:** 2.25

**Q:** Same question, O=C(Nc1n[nH]c(C2CC2)n1)c1nn(-c2ccccc2)c2c1CCCC2 this time
**A:** 2.36

**Q:** Same question, Cc1n[nH]c(NC(=O)c2nn(-c3ccc(F)cc3)c3c2CCC3)n1 this time
**A:** 3.68

**Q:** Same question, Cn1nc(C(=O)Nc2n[nH]c(-c3ccccc3Cl)n2)cc1C1CC1 this time
**A:** 3.02

**Q:** Same question, Cn1nc(C(=O)Nc2n[nH]c(-c3c(F)cccc3F)n2)cc1C1CC1 this time
**A:** 2.18

**Q:** Same question, Cc1nc(NC(=O)c2cc(-c3ccccc3)[nH]n2)n[nH]1 this time
**A:** 3.34

**Q:** Same question, O=C(Nc1n[nH]c(C2CC2)n1)c1nn(-c2ccccc2)c2c1CCC2 this time
**A:** 2.72

**Q:** Same question, N#Cc1ccc(-c2nc(NC(=O)c3nn(-c4ccccc4)c4c3CCCC4)n[nH]2)cc1 this time
**A:** 2.70

**Q:** Same question, O=C(Nc1n[nH]c(-c2ccccc2)n1)c1nn(-c2ccccc2)c2c1CCCC2 this time
**A:** 2.78
